# target-system: P. falciparum apicoplast DNA polymerase (Pf-apPOL) (Plasmodium falciparum)
# experiment-summary: Fluorescence-based high-throughput DNA polymerase assay (molecular beacon), primary screen and dose-response
# Assay type: biochemical
# study-conditions: DRC-2; read at 180'; concentration 40
I'd be grateful if you could share measured % inhibition apPOL 180' 40 for these entries.

**Query** Give P. falciparum apicoplast DNA polymerase (Pf-apPOL) (Plasmodium falciparum) % inhibition apPOL 180' 40 for COc1ccccc1CC(=O)N1CCc2c(nc3cc(-c4ccccc4Cl)[nH]n3c2=O)C1
**Result** 56%

**Query** Give P. falciparum apicoplast DNA polymerase (Pf-apPOL) (Plasmodium falciparum) % inhibition apPOL 180' 40 for CC(=O)Nc1cc(C(=O)c2cccs2)nn(-c2ccc(Cl)cc2)c1=O
**Result** 31%

**Query** Give P. falciparum apicoplast DNA polymerase (Pf-apPOL) (Plasmodium falciparum) % inhibition apPOL 180' 40 for COc1ccc(/C=C/c2cc(C(=O)O)c3ccccc3n2)cc1
**Result** 50%

**Query** Give P. falciparum apicoplast DNA polymerase (Pf-apPOL) (Plasmodium falciparum) % inhibition apPOL 180' 40 for Nc1cc(Oc2ccc(O)c(N)c2)ccc1O
**Result** 74%

**Query** Give P. falciparum apicoplast DNA polymerase (Pf-apPOL) (Plasmodium falciparum) % inhibition apPOL 180' 40 for Cc1cc2[nH]c(C(=O)Nc3ccc(F)cc3)c(CN3CCOCC3)c2s1
**Result** 53%

**Query** Give P. falciparum apicoplast DNA polymerase (Pf-apPOL) (Plasmodium falciparum) % inhibition apPOL 180' 40 for Cc1cccc(-c2noc(C(=O)NNC(=O)C(Cl)(Cl)Cl)n2)c1
**Result** 42%

**Query** Give P. falciparum apicoplast DNA polymerase (Pf-apPOL) (Plasmodium falciparum) % inhibition apPOL 180' 40 for O=C1CSC2=NC3=C(CCc4ccccc43)C(c3cccs3)N12 (stereo not drawn)
**Result** 38%

**Query** Give P. falciparum apicoplast DNA polymerase (Pf-apPOL) (Plasmodium falciparum) % inhibition apPOL 180' 40 for CCCc1ccc(Oc2coc3cc(OC)ccc3c2=O)cc1
**Result** 22%

**Query** Give P. falciparum apicoplast DNA polymerase (Pf-apPOL) (Plasmodium falciparum) % inhibition apPOL 180' 40 for COc1ccc(C2CC(c3ccc(Cl)cc3Cl)Nc3nc(N)nn32)cc1OC (stereo not drawn)
**Result** 43%

====

# target-system: UniProtKB Q8ILY1
# experiment-summary: Fluorescence-based high-throughput DNA polymerase assay (molecular beacon), primary screen and dose-response
# Assay type: biochemical
# study-conditions: DRC-2; 40'; conc 10
Class key for % inhibition Apol 40' values: low = under 50%, medium = from 50% up to 60%, high = 60% and over

**Query** GET /class?item= CC(C)CCNC(=O)c1cnn2c(O)cc(CSc3ccc(Cl)cc3)nc12 [Molecule 101]
**Result** high

**Query** GET /class?item= O=C1Nc2ccc(I)cc2C1=Cc1cc(Br)c(O)c(Br)c1 [Molecule 27]
**Result** low

**Query** GET /class?item= N#CC(C#N)=C1SCN(c2cccc(Cl)c2)CS1 [Molecule 29, N#CC(=C1SCN(CS1)c1cccc(c1)Cl)C#N]
**Result** medium

**Query** GET /class?item= Cc1cccc(NC(=O)Cn2ccc3c(=O)[nH]ccc32)c1C [Molecule 11, O=C(Cn1ccc2c1cc[nH]c2=O)Nc1cccc(c1C)C]
**Result** medium

**Query** GET /class?item= COc1ccccc1C1CC(=O)Oc2cc3c(cc21)OCO3 (stereo not shown) [KU0104502]
**Result** low

**Query** GET /class?item= Cc1ccc(N2NC(=O)/C(=C\c3ccc(O)c([N+](=O)[O-])c3)C2=O)cc1Cl [KU0058427]
**Result** low

**Query** GET /class?item= C=CC1=C(C)c2cc3[nH]c(cc4nc(cc5[nH]c(cc1n2)c(C)c5CCC(=O)O)C(CCC(=O)O)=C4C)c(C)c3C=C [Molecule 91]
**Result** high

**Query** GET /class?item= O=C(O)c1ccc(COc2cc([N+](=O)[O-])cc3cccnc23)cc1 [KU0058403]
**Result** low

====

# target-system: P. falciparum apicoplast DNA polymerase (Pf-apPOL) (Plasmodium falciparum, UniProt Q8ILY1)
# Sequence (Q8ILY1 entry or part of it): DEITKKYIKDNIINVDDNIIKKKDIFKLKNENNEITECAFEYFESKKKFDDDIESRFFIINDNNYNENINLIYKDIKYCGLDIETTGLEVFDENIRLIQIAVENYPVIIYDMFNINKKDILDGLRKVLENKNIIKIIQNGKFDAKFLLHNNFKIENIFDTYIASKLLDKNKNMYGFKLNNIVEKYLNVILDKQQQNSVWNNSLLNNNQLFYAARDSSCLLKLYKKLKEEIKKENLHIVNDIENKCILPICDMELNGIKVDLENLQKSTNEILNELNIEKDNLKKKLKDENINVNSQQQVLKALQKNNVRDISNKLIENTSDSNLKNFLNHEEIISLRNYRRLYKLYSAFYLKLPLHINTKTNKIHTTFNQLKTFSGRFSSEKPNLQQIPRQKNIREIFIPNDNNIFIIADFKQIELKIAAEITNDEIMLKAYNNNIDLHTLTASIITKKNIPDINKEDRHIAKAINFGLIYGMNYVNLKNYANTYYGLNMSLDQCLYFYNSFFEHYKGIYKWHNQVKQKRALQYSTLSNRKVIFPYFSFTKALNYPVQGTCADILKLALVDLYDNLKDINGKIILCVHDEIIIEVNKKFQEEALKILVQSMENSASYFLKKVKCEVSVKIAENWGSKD
# experiment-summary: Fluorescence-based high-throughput DNA polymerase assay (molecular beacon), primary screen and dose-response
# Type: biochemical
# study-conditions: primary screen hit value, DNA Pol (186 hits); 90 min, 10 µM
I'd be grateful if you could share measured DNA Pol for these entries.
Please reply with the number alone, leaving off any unit.

**Query** # input compound: COc1ccccc1CCC(=O)N1CCc2c(nc3cc(-c4ccccc4)[nH]n3c2=O)C1 ; wanted: its DNA Pol
**Result** 40

**Query** # input compound: CN(C)C=CC(=O)c1ccccn1 ; wanted: its DNA Pol
**Result** 79

**Query** # input compound: CSC(C)C(=O)C=CN(C)C (stereo not drawn) ; wanted: its DNA Pol
**Result** 74

**Query** # input compound: COc1ccc2c(c1)CCc1c-2nc2ccc(Br)cc2c1C(=O)O ; wanted: its DNA Pol
**Result** 29

**Query** # input compound: CSCCC(C)(O)CNC(=O)C1CC1 (stereo not drawn) ; wanted: its DNA Pol
**Result** 33

**Query** # input compound: CC1=NNC(=O)C1Oc1ccc(Cl)cc1Cl (stereo not drawn) ; wanted: its DNA Pol
**Result** 75

**Query** # input compound: CCSc1nnc(NC(=O)Cc2csc(NC(=O)c3cnccn3)n2)s1 ; wanted: its DNA Pol
**Result** 44

**Query** # input compound: CN(C)C=C1SCc2ccccc2C1=O ; wanted: its DNA Pol
**Result** 85

**Query** # input compound: O=C(Nc1nnc(-c2ccno2)o1)c1ccc2ncsc2c1 ; wanted: its DNA Pol
**Result** 57

**Query** # input compound: O=C(O)CC1SC(c2ccc3c(c2)OCO3)=NC1=O (stereo not drawn) ; wanted: its DNA Pol
**Result** 73

**Query** # input compound: O=C(NNC(=O)C(F)(F)Sc1ccccc1)c1ccsc1 [Molecule 68, O=C(C(Sc1ccccc1)(F)F)NNC(=O)c1cscc1] ; wanted: its DNA Pol
**Result** 82

**Query** # input compound: CN1CC(=Cc2ccco2)C(=O)C(=Cc2ccco2)C1 ; wanted: its DNA Pol
**Result** 69

====

# target-system: P. falciparum apicoplast DNA polymerase (Pf-apPOL) (Plasmodium falciparum, UniProt Q8ILY1)
# experiment-summary: Fluorescence-based high-throughput DNA polymerase assay (molecular beacon), primary screen and dose-response
# Assay type: biochemical
# study-conditions: DRC-1; 90'; concentration 40
Label 1.0 when % inhibition Apol 90' is at or above 70%; anything below gets 0.0.

**Query** Check this molecule for % inhibition Apol 90' at or above 70%: COc1cc(NC(=O)c2ccccc2)c(OC)cc1NC(=O)Cc1cccs1
**Result** 1.0

**Query** Check this molecule for % inhibition Apol 90' at or above 70%: CC1(C)CC(=O)C2=C(C1)OC1=C(C(=O)CC(C)(C)C1)C2c1ccc(O)cc1
**Result** 1.0

**Query** Check this molecule for % inhibition Apol 90' at or above 70%: Cc1ccc2c(C(=O)NCCc3cccnc3)cc(NC(=O)C(C)C)cc2n1
**Result** 0.0

**Query** Check this molecule for % inhibition Apol 90' at or above 70%: Oc1cccc2ccc(/C=C/c3ccc4c(c3)OCO4)nc12
**Result** 1.0

**Query** Check this molecule for % inhibition Apol 90' at or above 70%: CC(=O)c1cc2c(N)c(/C(N)=N/C#N)sc2nc1C
**Result** 0.0

**Query** Check this molecule for % inhibition Apol 90' at or above 70%: O=C(NCC1CCN(C2CCCC2)CC1)C(=O)NC1CCCC1
**Result** 0.0

====

I'd be grateful if you could share measured % inhibition Apol 90' for these entries.
# target-system: P. falciparum apicoplast DNA polymerase (Pf-apPOL) (Plasmodium falciparum, UniProt Q8ILY1)
# experiment-summary: Fluorescence-based high-throughput DNA polymerase assay (molecular beacon), primary screen and dose-response
# Assay type: biochemical
# study-conditions: DRC-1; 90'; concentration 40
Give the value in % but do not write % after it.

**Query** # input molecule: O=C(Nc1nnc(-c2ccno2)o1)c1ccc2ncsc2c1 ; wanted: its % inhibition Apol 90'
**Result** 51.9867

**Query** # input molecule: CCOC(=O)C1=C2c3cc(OC)c(OC)cc3CC(C)(C)N2C(=O)C1=O ; wanted: its % inhibition Apol 90'
**Result** 72.221

**Query** # input molecule: O=C(CSc1nc2ccccc2s1)Nc1ncc([N+](=O)[O-])s1 ; wanted: its % inhibition Apol 90'
**Result** 86.0812
